Values compiled from ChEMBL document CHEMBL1125883.

TARGET: Thromboxane-A synthase (Homo sapiens)
Sequence (P24557 whole entry): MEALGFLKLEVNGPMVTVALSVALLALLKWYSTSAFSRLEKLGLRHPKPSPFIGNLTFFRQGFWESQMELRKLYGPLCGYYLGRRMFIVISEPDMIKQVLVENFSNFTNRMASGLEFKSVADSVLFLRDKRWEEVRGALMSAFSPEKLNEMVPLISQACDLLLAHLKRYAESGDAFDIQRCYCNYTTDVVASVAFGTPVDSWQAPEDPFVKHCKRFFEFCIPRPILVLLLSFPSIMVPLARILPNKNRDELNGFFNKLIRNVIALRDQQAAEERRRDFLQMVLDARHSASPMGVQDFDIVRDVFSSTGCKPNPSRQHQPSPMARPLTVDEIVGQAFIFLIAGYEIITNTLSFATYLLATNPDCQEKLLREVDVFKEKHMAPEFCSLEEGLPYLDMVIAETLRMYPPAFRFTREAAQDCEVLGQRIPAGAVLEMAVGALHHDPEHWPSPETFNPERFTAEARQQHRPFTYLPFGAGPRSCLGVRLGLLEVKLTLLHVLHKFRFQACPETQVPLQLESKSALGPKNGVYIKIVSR
MEASUREMENT_DESCRIPTION: In vitro inhibition of thromboxane synthase using [14C]arachidonic acid
EXPERIMENTAL_ENDPOINT: IC50

>>> observed_result("O=C(O)CC/C=C\\C[C@@]1(c2cccnc2)C2CCC(C2)[C@H]1CNS(=O)(=O)c1ccc(Cl)cc1 (stereo not given in full)")
"340 nM"
>>> observed_result("O=C(O)CCCCCC[C@@H]1C2CCC(C2)C1c1cccnc1 (stereo not given in full)")
"125 nM"
>>> observed_result("O=C(O)CCC/C=C\\C[C@@H]1C2CCC(C2)[C@@]1(CCCCCc1ccccc1)c1cccnc1 (stereo not given in full)")
"790 nM"
>>> observed_result("O=C(O)CCCCCC[C@@H]1C2CCC(C2)[C@@H]1c1cccnc1 (stereo not given in full)")
"54 nM"
>>> observed_result("O=C(O)CCCCCC[C@H]1C2CCC(C2)[C@H]1c1cccnc1 (stereo not given in full)")
"7 nM"
